- Tested on: polyclonal antibodies specific for human PCSK9 aa 153-162 or aa 153-165
- ASSAY_SUMMARY: Binding ELISA: mimotopes coated on plates, detected by mouse sera raised against the original PCSK9 sequence
- CONDITION_CONTEXT: mimotope coated at 1 μmol/mL; titer = serum dilution where 50% of ODmax is reached
READOUT_NAME: Median Titer Binding ELISA (ODmax/2)

                                  substance                          readout_name  measurement
0  17 (SIPGNLERIT; Artificial Sequence, Mimotope) [compound 17]  Median Titer Binding ELISA (ODmax/2)       21,000
1  11 (SGPWNLERITPPR; Artificial Sequence, Mimotope) [compound 11]  Median Titer Binding ELISA (ODmax/2)       81,000
2  16 (SIPANLERIT; Artificial Sequence, Mimotope) [compound 16]  Median Titer Binding ELISA (ODmax/2)       22,000
3  56 (VIPWNLERIQ; Artificial Sequence, Mimotope) [compound 56]  Median Titer Binding ELISA (ODmax/2)      166,000
4  72 (VQPWSLERLL; Artificial Sequence, Mimotope) [compound 72]  Median Titer Binding ELISA (ODmax/2)      166,000
5  67 (SIPWSLERIQ; Artificial Sequence, Mimotope) [compound 67]  Median Titer Binding ELISA (ODmax/2)      223,000

*Q* State measured Median Titer Binding ELISA (ODmax/2) of the substance 8 (SVPWNLERIT; Artificial Sequence, Mimotope) [compound 8] with polyclonal antibodies specific for human PCSK9 aa 153-162 or aa 153-165.
*A* 197,000

*Q* State measured Median Titer Binding ELISA (ODmax/2) of the substance 14 (SIVWNLERITPPR; Artificial Sequence, Mimotope) [compound 14] with polyclonal antibodies specific for human PCSK9 aa 153-162 or aa 153-165.
*A* 146,000

*Q* State measured Median Titer Binding ELISA (ODmax/2) of the substance 10 (SAPWNLERIT; Artificial Sequence, Mimotope) [compound 10] with polyclonal antibodies specific for human PCSK9 aa 153-162 or aa 153-165.
*A* 131,000

====

- System: polyclonal antibodies specific for human PCSK9 aa 153-162 or aa 153-165
- ASSAY_SUMMARY: Binding ELISA: mimotopes coated on plates, detected by mouse sera raised against the original PCSK9 sequence
- CONDITION_CONTEXT: mimotope coated at 1 μmol/mL; titer = serum dilution where 50% of ODmax is reached
- Text: FIGS. 1A and 1B show detection of PCSK9 mimotopes sequences by mouse sera containing polyclonal antibodies specific for human PCSK9 aa 153-162 or aa 153-165 The graphs display median titers from all mimotopes compared to the irrelevant negative control. As a positive control the original human PCSK9 sequence is included: aa 153-162 or aa 153-165. Mimotopes with values over 1:50.000 are considered as good candidates. Mimotopes were coated on ELISA plates at a concentration of 1 μmol/mL. […]
Each item that follows carries a reported Median Titer Binding ELISA (ODmax/2).

>>> df
                                  substance  measurement
0  39 (SIPWNLERIL; Artificial Sequence, Mimotope) [compound 39]      168,000
1  40 (SIPWNLERIQ; Artificial Sequence, Mimotope) [compound 40]      181,000
2  54 (VIPWNLERTT; Artificial Sequence, Mimotope) [compound 54]      162,000
3  47 (SIPWNLERITPTR; Artificial Sequence, Mimotope) [compound 47]      155,000
4  42 (SIPWNLERISPPR; Artificial Sequence, Mimotope) [compound 42]      719,000

*Q* Supply reported Median Titer Binding ELISA (ODmax/2) belonging to this substance: 37 (SIPWNLERTT; Artificial Sequence, Mimotope) [compound 37]
*A* 177,000

*Q* Supply reported Median Titer Binding ELISA (ODmax/2) belonging to this substance: 50 (SIPWNLERITPPK; Artificial Sequence, Mimotope) [compound 50]
*A* 158,000

*Q* Supply reported Median Titer Binding ELISA (ODmax/2) belonging to this substance: 36 (SIPWNLERLT; Artificial Sequence, Mimotope) [compound 36]
*A* 192,000

*Q* Supply reported Median Titer Binding ELISA (ODmax/2) belonging to this substance: 28 (SIPWNDERIT; Artificial Sequence, Mimotope) [compound 28]
*A* 131,000

*Q* Supply reported Median Titer Binding ELISA (ODmax/2) belonging to this substance: 46 (SIPWNLERITPVR; Artificial Sequence, Mimotope) [compound 46]
*A* 265,000

*Q* Supply reported Median Titer Binding ELISA (ODmax/2) belonging to this substance: 61 (SQPWNLERLT; Artificial Sequence, Mimotope) [compound 61]
*A* 200,000

*Q* Supply reported Median Titer Binding ELISA (ODmax/2) belonging to this substance: 18 (SIPHNLERIT; Artificial Sequence, Mimotope) [compound 18]
*A* 23,000

*Q* Supply reported Median Titer Binding ELISA (ODmax/2) belonging to this substance: 48 (SIPWNLERITPNR; Artificial Sequence, Mimotope) [compound 48]
*A* 186,000

*Q* Supply reported Median Titer Binding ELISA (ODmax/2) belonging to this substance: 60 (SVPWNLERIQ; Artificial Sequence, Mimotope) [compound 60]
*A* 222,000

*Q* Supply reported Median Titer Binding ELISA (ODmax/2) belonging to this substance: 69 (SQPWSLERTL; Artificial Sequence, Mimotope) [compound 69]
*A* 98,000

*Q* Supply reported Median Titer Binding ELISA (ODmax/2) belonging to this substance: 15 (SIPFNLERIT; Artificial Sequence, Mimotope) [compound 15]
*A* 42,000

*Q* Supply reported Median Titer Binding ELISA (ODmax/2) belonging to this substance: 33 (SIPWNLEKIT; Artificial Sequence, Mimotope) [compound 33]
*A* 59,000

*Q* Supply reported Median Titer Binding ELISA (ODmax/2) belonging to this substance: 34 (SIPWNLEAIT; Artificial Sequence, Mimotope) [compound 34]
*A* 54,000

*Q* Supply reported Median Titer Binding ELISA (ODmax/2) belonging to this substance: 59 (SVPWNLERIL; Artificial Sequence, Mimotope) [compound 59]
*A* 188,000

*Q* Supply reported Median Titer Binding ELISA (ODmax/2) belonging to this substance: 13 (SIAWNLERIT; Artificial Sequence, Mimotope) [compound 13]
*A* 147,000

*Q* Supply reported Median Titer Binding ELISA (ODmax/2) belonging to this substance: 55 (VIPWNLERIL; Artificial Sequence, Mimotope) [compound 55]
*A* 173,000

*Q* Supply reported Median Titer Binding ELISA (ODmax/2) belonging to this substance: 31 (SIPWNLARIT; Artificial Sequence, Mimotope) [compound 31]
*A* 34,000

*Q* Supply reported Median Titer Binding ELISA (ODmax/2) belonging to this substance: 70 (SVPWNLEKLT; Artificial Sequence, Mimotope) [compound 70]
*A* 47,000
